# System Tested: T1, human G-protein-coupled receptor family C group 5 member D (GPRC5D) (human, UniProt Q9NZD1 1-345)
# T1 construct: whole, on cells; also called human GPRC5D protein
# T1 sequence (Q9NZD1 whole entry): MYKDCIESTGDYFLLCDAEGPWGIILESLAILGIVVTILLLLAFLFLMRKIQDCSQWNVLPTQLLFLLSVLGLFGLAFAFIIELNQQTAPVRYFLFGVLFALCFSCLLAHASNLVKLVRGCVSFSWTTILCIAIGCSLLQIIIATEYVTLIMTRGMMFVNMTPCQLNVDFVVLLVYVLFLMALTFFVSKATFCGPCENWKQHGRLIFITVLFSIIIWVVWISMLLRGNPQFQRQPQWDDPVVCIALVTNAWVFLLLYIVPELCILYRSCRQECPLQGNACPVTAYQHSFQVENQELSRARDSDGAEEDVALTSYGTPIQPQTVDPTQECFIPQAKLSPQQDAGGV
# Test: FACS, CHO-K1/GPRC5D
Provide the recorded Top for the entries that follow.

Query block: State its Top: 37-H3L3 (antibody, V domains shown, humanized 37B9C4, VH v3 x VL v3) VH: EVQLVESGGGLVQPGGSLRLSCAASGFTFSDYWMNWVRQSPGKGLEWVAEIRLKSNNYATHYAESVKGRFTISRDDSKSSVYLQMNSLRAEDTAVYYCTRPLLWFRRYYAMDYWGQGTLVTVSS VL: DIQMTQSPSSLSASVGDRITITCSASQGISNYLNWYQQKPGKTVKLLIYYTSSLHSGVPSRFSGSGSGTDYTLTISSLQPEDFATYYCQQYSKLPFTFGSGTKLEIK
Result block: 181000

Query block: Dear colleague, please send me the reported Top for 37B9C4-XI (antibody, V domains shown, also called 37B9C4 (chimeric); 37-XI) VH: EVNLEESGGGLVQPGGSMKLSCVASGFTFSDYWMNWVRQSPEKGLEWVAEIRLKSNNYATHYAESVKGRFTISRDDSKSSVYLQMNNLRAEDTGIYYCTRPLLWFRRYYAMDYWGQGTSVTVSS VL: DIQMTQTTSSLSASLGDRITISCSASQGISNYLNWYQQKPDGTVKLLIYYTSSLHSGVPSRFSGSGSGTDYSLTISNLEPADIATYYCQQYSKLPFTFGSGTKLEIK when you can.
Result block: 188000

Query block: Hello, please tell me recorded Top for this one: 37-H2L1 (antibody, V domains shown, humanized 37B9C4, VH v2 x VL v1) VH: EVQLVESGGGLVQPGGSLRLSCAASGFTFSDYWMNWVRQSPGKGLEWVAEIRLKSNNYATHYAESVKGRFTISRDNAKSSLYLQMNSLRAEDTAVYYCTRPLLWFRRYYAMDYWGQGTLVTVSS VL: DIQMTQSPSSLSASVGDRVTITCSASQGISNYLNWYQQKPGKAPKLLIYYTSSLHSGVPSRFSGSGSGTDFTLTISSLQPEDFATYYCQQYSKLPFTFGQGTKLEIK
Result block: 175000

Query block: Check the records and state Top for 37-H3L1 (antibody, V domains shown, humanized 37B9C4, VH v3 x VL v1) VH: EVQLVESGGGLVQPGGSLRLSCAASGFTFSDYWMNWVRQSPGKGLEWVAEIRLKSNNYATHYAESVKGRFTISRDDSKSSVYLQMNSLRAEDTAVYYCTRPLLWFRRYYAMDYWGQGTLVTVSS VL: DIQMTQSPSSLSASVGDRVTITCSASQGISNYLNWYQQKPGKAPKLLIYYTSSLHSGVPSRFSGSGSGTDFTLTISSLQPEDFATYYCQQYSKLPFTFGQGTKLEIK
Result block: 179000

Query block: Please look at this binder and report its Top: 37-H3L2 (antibody, V domains shown, humanized 37B9C4, VH v3 x VL v2) VH: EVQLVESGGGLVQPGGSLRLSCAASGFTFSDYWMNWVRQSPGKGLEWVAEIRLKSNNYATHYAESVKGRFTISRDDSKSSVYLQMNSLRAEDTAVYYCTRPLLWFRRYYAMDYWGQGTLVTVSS VL: DIQMTQSPSSLSASVGDRVTITCSASQGISNYLNWYQQKPGKTVKLLIYYTSSLHSGVPSRFSGSGSGTDYTLTISSLQPEDFATYYCQQYSKLPFTFGQGTKLEIK
Result block: 179000

Query block: Respond only with Top recorded for 37-H1L1 (antibody, V domains shown, humanized 37B9C4, VH v1 x VL v1; also called 37B9C4 (H1L1)) VH: EVQLVESGGGLVQPGGSLRLSCAASGFTFSDYWMNWVRQAPGKGLEWVAEIRLKSNNYATHYAESVKGRFTISRDNAKNSLYLQMNSLRAEDTAVYYCARPLLWFRRYYAMDYWGQGTLVTVSS VL: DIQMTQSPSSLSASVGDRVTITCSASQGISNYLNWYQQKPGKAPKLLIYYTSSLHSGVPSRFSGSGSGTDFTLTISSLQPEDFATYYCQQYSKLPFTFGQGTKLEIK
Result block: 178000

Query block: Answer with the recorded Top for the binder listed here: 37-H2L2 (antibody, V domains shown, humanized 37B9C4, VH v2 x VL v2) VH: EVQLVESGGGLVQPGGSLRLSCAASGFTFSDYWMNWVRQSPGKGLEWVAEIRLKSNNYATHYAESVKGRFTISRDNAKSSLYLQMNSLRAEDTAVYYCTRPLLWFRRYYAMDYWGQGTLVTVSS VL: DIQMTQSPSSLSASVGDRVTITCSASQGISNYLNWYQQKPGKTVKLLIYYTSSLHSGVPSRFSGSGSGTDYTLTISSLQPEDFATYYCQQYSKLPFTFGQGTKLEIK
Result block: 175000

Query block: For the binder 37-H1L3 (antibody, V domains shown, humanized 37B9C4, VH v1 x VL v3) VH: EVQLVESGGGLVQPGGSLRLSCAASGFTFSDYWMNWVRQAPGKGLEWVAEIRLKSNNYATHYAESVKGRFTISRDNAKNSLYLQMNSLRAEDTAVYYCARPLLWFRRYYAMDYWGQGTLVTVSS VL: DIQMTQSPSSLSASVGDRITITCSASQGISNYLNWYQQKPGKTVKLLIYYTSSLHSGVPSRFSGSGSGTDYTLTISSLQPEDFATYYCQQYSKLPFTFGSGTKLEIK , give its measured Top value.
Result block: 173000

The reported numbers originate from patent US12281162.
